TARGET_OF_ASSAY: GST-SNAP25 197 (UniProt P60880)
Sequence (P60880 1-197 limits assumed): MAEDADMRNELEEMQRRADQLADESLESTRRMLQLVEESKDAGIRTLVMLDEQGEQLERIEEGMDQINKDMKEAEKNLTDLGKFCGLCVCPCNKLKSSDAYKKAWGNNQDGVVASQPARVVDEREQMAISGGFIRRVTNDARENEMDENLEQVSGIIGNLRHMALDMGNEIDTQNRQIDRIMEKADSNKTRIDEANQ
Field: A450 with SNAP25 197. Provide a value for each of the binders that follow.
I only need the number, thanks.

Recorded A450 with SNAP25 197 for C16 (antibody, V domains shown) VH: EVQLQQSGAELARPGASVQMSCKAFGYTFTNYTMHWVRQRPGQGLEWIGFINPSSDYTNYNQKFKDKATLSADKSSSTAYMQLSSLTSEDSAVYYCARRIFYNGRTYAAMDYWGQGTSVTVSS VL: DIVMTQSPASLAVSLGQRATISCRASKSVSSSGYSYMHWYQQKPGQPPKLLIYLASNLESGVPARFSGSGSGTDFTLNIHPVEEEDAATYYCQHSRELPLTFGAGTKLELK , please?
0.996

Next record, please: D2 (antibody, V domains shown) VH: DVKLQESGPGLVKPSQSLSLTCSVTGYSITSGYYWNWIRQFPGNKLEWMGYIRYDGSNNYNPSLKNRISITRDTSKNQFFLKLNSVTTEDTASYYCARDRDSSYYFDYWGQGTALTVSS VL: DIVMTQSSSYLSVSLGGRVTITCKASDHINNWLAWYQQKPGNAPRLLISDTTSLETGVPSRFSGSGSGKDYTLSITSLQTEDVATYYCQQYWSAPPTFGGGTKLEIK
0.048

Next record, please: C7 (antibody, V domains shown) VH: QVQLVETGGGLVQPKGSLKLSCAASGFTFNTNAMNWVRQAPGKGLEWVARIRSKSNNYATYYADSVKDRFTISRDDSQSLLYLQMNNLKTEDTAMYYCVYGRSYGGLSYWGQGTLVTVSA VL: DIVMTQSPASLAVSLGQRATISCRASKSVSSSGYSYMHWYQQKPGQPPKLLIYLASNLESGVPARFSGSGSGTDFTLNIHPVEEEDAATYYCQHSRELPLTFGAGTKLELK
1.2

Value source: patent KR20200072008A
